The reader will find reported AUC(0-t) values listed item by item below.
# Set-up: species or system rats
# Details: rat, in vivo, sc, 230 ug/kg;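 note: blood drawn at alternating time points, with three animals in each cohort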
Could you give me the number in µg·h/mL? Just the number is fine.

Molecule	AUC(0-t) / µg·h/mL
CTP-CTP-OXM: oxyntomodulin with two CTPs on the amino terminus, SEQ ID NO: 23 (protein, CTPx2-OXM) MATGSRTSLLLAFGLLCLPWLQEGSASSSSKAPPPSLPSPSRLPGPSDTPILPQSSSSKAPPPSLPSPSRLPGPSDTPILPQHSQGTFTSDYSKYLDSRRAQDFVQWLMNTKRNRNNIARSGCGRGTLGLMGLPFTARFP	0.11415
OXM-CTP-CTP: oxyntomodulin with two CTPs in tandem on the carboxy terminus, SEQ ID NO: 21, expressed in CHO cells (protein, OXM-CTP-CTP) LEDMATGSRTSLLLAFGLLCLPWLQEGSAHSQGTFTSDYSKYLDSRRAQDFVQWLMNTKRNRNNIASSSSKAPPPSLPSPSRLPGPSDTPILPQSSSSKAPPPSLPSPSRLPGPSDTPILPQ	0.697
CTP-OXM-CTP: oxyntomodulin with one CTP on the amino terminus and one on the carboxy terminus, SEQ ID NO: 9 (protein, CTP-OXM-CTP) MATGSRTSLLLAFGLLCLPWLQEGSASSSSKAPPPSLPSPSRLPGPSDTPILPQHSQGTFTSDYSKYLDSRRAQDFVQWLMNTKRNRNNIASSSSKAPPPSLPSPSRLPGPSDTPILPQ	0.14487

Shifting focus to the molecule that follows.
Exam item: Give the measured AUC(0-t) of CTP-OXM-CTP-CTP: oxyntomodulin with one CTP on the amino terminus and two on the carboxy terminus, SEQ ID NO: 15 (protein, CTP-OXM-CTP-CTP) MATGSRTSLLLAFGLLCLPWLQEGSASSSSKAPPPSLPSPSRLPGPSDTPILPQHSQGTFTSDYSKYLDSRRAQDFVQWLMNTKRNRNNIASSSSKAPPPSLPSPSRLPGPSDTPILPQSSSSKAPPPSLPSPSRLPGPSDTPILPQ .
Marked response: 0.31398

Data credit: patent US9522945B2
